target: GlcNAc(b1-3)Gal(b1-4)GlcNAc(b1-3)Gal(b1-4)GlcNAc; experiment: glycan array binding signal (z-score within array); higher = stronger binding; conditions: glycan notation: IUPAC condensed, linker removed
The sample as a whole holds a higher share of the strongest signals than the screen did.
endpoint: glycan array binding signal (z-score)

{"columns": ["binder", "glycan array binding signal (z-score)"],
 "data": [
  ["WGA (Triticum vulgare) (protein) QRCGEQGSNMECPNNLCCSQYGYCGMGGDYCGKGCQNGACWTSKRCGSQAGGATCPNNHCCSQYGHCGFGAEYCGAGCQGGPCRADIKCGSQSGGKLCPNNLCCSQWGFCGLGSEFCGGGCQSGACSTDKPCGKDAGGRVCTNNYCCSKWGSCGIGPGYCGAGCQSGGCDAVFAGAITANSTLLAE", 1.71],
  ["Gal 8 (Mus musculus), Q9JL15 (protein) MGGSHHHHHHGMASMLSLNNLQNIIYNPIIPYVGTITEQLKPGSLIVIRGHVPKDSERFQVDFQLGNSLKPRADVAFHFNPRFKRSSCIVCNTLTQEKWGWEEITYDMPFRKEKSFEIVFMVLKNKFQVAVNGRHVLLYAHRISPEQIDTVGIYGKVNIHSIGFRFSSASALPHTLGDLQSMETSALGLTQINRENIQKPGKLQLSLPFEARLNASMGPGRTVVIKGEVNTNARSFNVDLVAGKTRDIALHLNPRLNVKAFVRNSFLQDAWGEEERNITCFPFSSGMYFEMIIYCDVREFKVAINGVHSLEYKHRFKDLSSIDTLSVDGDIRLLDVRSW", 1.11]
]}

Query: Entry MGL6A (Homo sapiens) (protein) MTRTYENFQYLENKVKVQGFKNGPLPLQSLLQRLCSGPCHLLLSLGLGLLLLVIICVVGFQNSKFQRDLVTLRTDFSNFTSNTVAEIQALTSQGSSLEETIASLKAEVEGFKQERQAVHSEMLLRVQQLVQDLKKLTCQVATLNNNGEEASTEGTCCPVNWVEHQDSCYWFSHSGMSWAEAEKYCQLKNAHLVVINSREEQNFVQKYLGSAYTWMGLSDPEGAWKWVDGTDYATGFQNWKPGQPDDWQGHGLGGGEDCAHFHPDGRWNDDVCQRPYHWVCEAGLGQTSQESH has what glycan array binding signal (z-score)?
Result: 0.5
